# credit: ChEMBL document CHEMBL4184280

- protocol: Metabolic stability in mouse liver microsomes assessed as parent compound remaining after 30 mins
- Assay type: ADME, microsome
- cond: read-out: Stability

# molecule smiles, remaining at 0.5 h, %
rows = [
    ("CNc1ccc(C(N)=O)cn1", 69),
]

###

- assayed target: Cytochrome P450 2C9 (Homo sapiens)
- Sequence (P11712 whole entry): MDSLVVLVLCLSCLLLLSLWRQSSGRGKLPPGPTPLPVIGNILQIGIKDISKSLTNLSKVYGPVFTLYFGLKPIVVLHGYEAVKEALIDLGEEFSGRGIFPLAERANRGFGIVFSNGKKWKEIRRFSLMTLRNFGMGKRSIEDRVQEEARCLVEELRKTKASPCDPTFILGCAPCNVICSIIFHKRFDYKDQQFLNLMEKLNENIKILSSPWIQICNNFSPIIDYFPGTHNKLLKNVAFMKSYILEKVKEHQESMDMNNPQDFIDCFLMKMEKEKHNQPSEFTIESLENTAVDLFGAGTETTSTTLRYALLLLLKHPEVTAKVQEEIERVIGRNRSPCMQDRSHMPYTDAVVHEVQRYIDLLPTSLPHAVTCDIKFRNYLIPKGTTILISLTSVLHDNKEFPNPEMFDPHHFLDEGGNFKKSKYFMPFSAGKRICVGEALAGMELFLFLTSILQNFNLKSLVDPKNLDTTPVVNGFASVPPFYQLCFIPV

# molecule smiles, IC50
rows = [
    ("CNc1ccc(C(N)=O)cn1", "> 20 µM"),
]

###

- protocol: Half life in C57Bl6/N mouse at 10 mg/kg, po
- Type: ADME, organism-based
- cond: in vivo
property label: half-life (min)

# molecule smiles, assay value
data = [
    ("CNc1ccc(C(N)=O)cn1", 72),
]

###

- protocol: Half life in C57Bl6/N mouse at 1 mg/kg, iv
- Type: ADME, organism-based
- cond: in vivo

# molecule smiles, units, half-life
data = [
    ("CNc1ccc(C(N)=O)cn1", "min", 48),
]

###

- assayed target: UniProtKB O55239
- Sequence (O55239 whole entry): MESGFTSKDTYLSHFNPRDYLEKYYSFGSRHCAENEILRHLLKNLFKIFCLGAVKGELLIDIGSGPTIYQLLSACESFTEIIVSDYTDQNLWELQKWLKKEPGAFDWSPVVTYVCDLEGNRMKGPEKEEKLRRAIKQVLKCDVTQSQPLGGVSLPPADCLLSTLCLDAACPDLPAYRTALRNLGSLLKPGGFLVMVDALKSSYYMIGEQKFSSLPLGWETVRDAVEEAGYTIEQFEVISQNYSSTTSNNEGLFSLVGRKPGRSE
- protocol: Inhibition of NNMT in mouse 3T3L1 cells assessed as reduction in MNA production after 24 hrs by LC-MS/MS analysis
- Assay type: cell-based
pIC50: −log10 of the molar value.

# molecule smiles, assayed target, pIC50
records = [
    ("CNc1ccc(C(N)=O)cn1", "UniProtKB O55239", 5.68),
]

###

- protocol: Solubility of the compound
- Assay type: physicochemical
property label: solubility (µM)

# molecule smiles, property label, assay value
records = [
    ("CNc1ccc(C(N)=O)cn1", "solubility", 200),
]

###

- assayed target: UniProt P10635
- Sequence (P10635 whole entry): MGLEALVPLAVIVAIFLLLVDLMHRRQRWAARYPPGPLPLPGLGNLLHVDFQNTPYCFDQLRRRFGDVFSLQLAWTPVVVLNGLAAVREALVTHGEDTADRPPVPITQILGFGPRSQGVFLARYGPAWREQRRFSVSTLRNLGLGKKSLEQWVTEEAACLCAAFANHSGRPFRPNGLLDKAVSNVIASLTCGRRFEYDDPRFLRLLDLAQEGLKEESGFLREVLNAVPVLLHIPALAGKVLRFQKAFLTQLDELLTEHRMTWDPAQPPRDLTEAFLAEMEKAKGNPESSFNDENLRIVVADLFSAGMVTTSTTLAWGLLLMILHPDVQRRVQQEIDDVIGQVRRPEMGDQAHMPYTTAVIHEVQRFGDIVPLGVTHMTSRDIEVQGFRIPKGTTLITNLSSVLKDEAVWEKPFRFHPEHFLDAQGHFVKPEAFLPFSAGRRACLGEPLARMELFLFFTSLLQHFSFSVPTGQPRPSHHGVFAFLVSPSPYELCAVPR
pIC50: −log10 of the molar value.

# molecule smiles, pIC50
data = [
    ("CNc1ccc(C(N)=O)cn1", "< 4.70"),
]

###

- protocol: AUC in C57Bl6/N mouse at 10 mg/kg, po
- Assay type: ADME, organism-based
- cond: in vivo

# molecule smiles, AUC
rows = [
    ("CNc1ccc(C(N)=O)cn1", "1090 ng·h/mL"),
]

###

pIC50: −log10 of the molar value.
// UniProt P40261 pIC50 records
Sequence (P40261 whole entry): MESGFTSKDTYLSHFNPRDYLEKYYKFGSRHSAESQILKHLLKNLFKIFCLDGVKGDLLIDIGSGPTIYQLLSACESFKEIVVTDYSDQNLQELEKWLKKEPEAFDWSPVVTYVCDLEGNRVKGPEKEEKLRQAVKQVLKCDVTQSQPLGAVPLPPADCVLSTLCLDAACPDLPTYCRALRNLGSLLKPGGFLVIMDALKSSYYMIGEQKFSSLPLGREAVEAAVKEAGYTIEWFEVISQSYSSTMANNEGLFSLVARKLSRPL

# molecule smiles, assayed target, pIC50
records = [
    ("CCc1ccc(C(N)=O)cn1", "UniProt P40261", "< 4.52"),
    ("Cn1cc(C(N)=O)ccc1=O", "UniProt P40261", "< 4.52"),
    ("[2H]C([2H])([2H])Oc1ccc(C(N)=O)cn1", "UniProt P40261", "5.79 to 6.04"),
    ("CCOc1nc(C)ccc1C(N)=O", "UniProt P40261", "< 4.52"),
    ("NC(=O)c1ccc(C(F)(F)F)nc1", "UniProt P40261", "< 4.52"),
    ("COc1ccc(C(N)=O)cc1", "UniProt P40261", "< 4.52"),
    ("Cc1ccc(C(N)=O)cn1", "UniProt P40261", "< 5.00"),
    ("CCOc1cc(C)ncc1C(N)=O", "UniProt P40261", "< 4.52"),
]
